Values compiled from ChEMBL document CHEMBL4270565.

Form field: MIC90 (one value per entry).
- Tested on: Klebsiella aerogenes
- test.description: Antibacterial activity against Enterobacter aerogenes ATCC 13048 after 18 to 24 hrs by two-fold serial dilution method
- Format: functional
measurement.type: MIC90

In [3]: df
Out[3]:
                                 smiles_str  observed_measurement
0  CCO/N=C1\C(=O)N(CCCN2CCN(c3cc4c(cc3F)c(=O)c(C(=O)O)cn4C3CC3)CC2)c2ccc(C)cc21          ≤ 0.03 µg/mL
1  CCO/N=C1\C(=O)N(CCCN2CCN(c3cc4c(cc3F)c(=O)c(C(=O)O)cn4C3CC3)CC2)c2ccccc21          ≤ 0.03 µg/mL
2  CO/N=C1\C(=O)N(CCCN2CCN(c3cc4c(cc3F)c(=O)c(C(=O)OCCCN3C(=O)/C(=N/OC)c5ccccc53)cn4C3CC3)CC2)c2ccccc21              64 µg/mL
3  CO/N=C1\C(=O)N(CCCN2CCN(c3cc4c(cc3F)c(=O)c(C(=O)OCCCN3C(=O)/C(=N/OC)c5cc(C)ccc53)cn4C3CC3)CC2)c2ccc(C)cc21              32 µg/mL
4  O=C1C(=O)N(CCCN2CCN(c3cc4c(cc3F)c(=O)c(C(=O)O)cn4C3CC3)CC2)c2ccccc21          ≤ 0.03 µg/mL
5  CO/N=C1\C(=O)N(CCCN2CCN(c3cc4c(cc3F)c(=O)c(C(=O)O)cn4C3CC3)CC2)c2ccccc21          ≤ 0.03 µg/mL
6  CO/N=C1\C(=O)N(CCCN2CCN(c3cc4c(cc3F)c(=O)c(C(=O)O)cn4C3CC3)CC2)c2ccc(C)cc21          ≤ 0.03 µg/mL
